# Test system: C6
# methodSummary: Antiproliferative activity against rat C6 cells assessed as inhibition of cell proliferation measured after 72 hrs by CCK8 assay
# Assay type: functional, cell-based
# conditionNotes: C6, 72 h
pIC50: −log10 of the molar value.
Binary classification by pIC50, with 6 as an inclusive lower bound for True; all other cases are False.

Field: example entries. Status: answers known.
compound	category
CC(C)N1CCN(c2ccccc2C(=O)Nc2ccc(CNC(=O)OCc3cccnc3)cc2)CC1	True
COCCN1CCN(c2ccc(N)cc2C(=O)Nc2ccc(CNC(=O)OCc3cccnc3)cc2)CC1	True
COCCN1CCN(c2ccc(C(F)(F)F)cc2C(=O)Nc2ccc(CNC(=O)OCc3cccnc3)cc2)CC1	False
COCCN1CCN(c2ccc(Cl)cc2C(=O)Nc2ccc(CNC(=O)OCc3cccnc3)cc2)CC1	False
O=C(NCc1ccc(NC(=O)c2ccccc2N2CCOCC2)cc1)OCc1cccnc1	False
COCCN1CCN(c2c(C)cccc2C(=O)Nc2ccc(CNC(=O)OCc3cccnc3)cc2)CC1	True

In the following, a different compound is considered.
Prompt: Quick check, pIC50 >= 6? Nc1ccccc1NC(=O)c1ccc(CNC(=O)OCc2cccnc2)cc1
Completion: True

---

Listed next: entries and their corresponding IC50.
# Tested on: C6
# methodSummary: Antiproliferative activity against rat C6 cells assessed as inhibition of cell proliferation measured after 72 hrs by CCK8 assay
# Type: functional, cell-based
# conditionNotes: C6, 72 h
Report only the number, with the unit µM understood.

Known IC50 results, listed for orientation:
smilesData	IC50 [µM]
COCCN1CCN(c2cc(C)ccc2C(=O)Nc2ccc(CNC(=O)OCc3cccnc3)cc2)CC1	0.89
O=C(NCc1ccc(NC(=O)c2ccccc2N2CCN(C3CC3)CC2)cc1)OCc1cccnc1	1.12
O=C(NCc1ccc(NC(=O)c2ccccc2N2CCN(CCF)CC2)cc1)OCc1cccnc1	0.46

What the record says about COCCN1CCN(c2ccc(C)cc2C(=O)Nc2ccc(CNC(=O)OCc3cccnc3)cc2)CC1 : IC50 is 1.29

What the record says about COCCN1CCN(c2ccc(Br)cc2C(=O)Nc2ccc(CNC(=O)OCc3cccnc3)cc2)CC1 : IC50 is 2.65

What the record says about CCN1CCN(c2ccccc2C(=O)Nc2ccc(CNC(=O)OCc3cccnc3)cc2)CC1 : IC50 is 0.36

What the record says about O=C(NCc1ccc(NC(=O)c2ccccc2N2CCN(C3COC3)CC2)cc1)OCc1cccnc1 : IC50 is 0.57

What the record says about O=C(NCc1ccc(NC(=O)c2ccccc2N2CCN(CC3CC3)CC2)cc1)OCc1cccnc1 : IC50 is 0.8

What the record says about CN1CCN(c2ccccc2C(=O)Nc2ccc(CNC(=O)OCc3cccnc3)cc2)CC1 : IC50 is 0.52

What the record says about O=C(NCc1ccc(NC(=O)c2ccccc2N2CCN(CCO)CC2)cc1)OCc1cccnc1 : IC50 is 0.29
